# System: hepatocellular carcinoma cell line Hep3B
# EXPERIMENT: Growth inhibition of Hep3B cells, 48 hr treatment, Hoechst 33342 nucleus count (GE InCell 2200)
# Type: cell-based
# STATED_CONDITIONS: Homo sapiens, Table 5, ratio of number of tumor cells treated with 10 μM compound to non-treated cells

{"LINE_NOTATION": "CCOc1ccc(-c2nc(NC(=O)c3ccc([N+](=O)[O-])s3)sc2Oc2ccc(C(C)(C)C)cc2)cc1", "viability at 10 µM": "42%"}
{"LINE_NOTATION": "CCCOc1ccc(-c2nc(NC(=O)c3ccc([N+](=O)[O-])o3)sc2Oc2ccccc2)cc1", "viability at 10 µM": "37%"}
{"LINE_NOTATION": "COc1cc(-c2nc(NC(=O)c3ccc([N+](=O)[O-])s3)sc2Oc2ccccc2)cc(OC)c1OC", "viability at 10 µM": "59%"}
{"LINE_NOTATION": "CCCOc1ccc(-c2nc(NC(=O)c3ccc([N+](=O)[O-])o3)sc2Oc2ccc(F)cc2)cc1", "viability at 10 µM": "41%"}

###

# Test system: SW480 colon adenocarcinoma cell line
OBSERVABLE: GI50 (µM)

{"LINE_NOTATION": "CC(C)(C)c1ccc(-c2nc(NC(=O)c3ccc([N+](=O)[O-])s3)sc2Oc2ccc(C(F)(F)F)cc2)cc1", "MEASURE_UNIT": "µM", "MEASUREMENT": 0.69}
{"LINE_NOTATION": "Nc1nc2ccc(CC(=O)Nc3nnc(-c4ccc(Br)cc4)s3)cc2s1", "MEASURE_UNIT": "µM", "MEASUREMENT": 7.7}
{"LINE_NOTATION": "CCOc1ccc(-c2nc(NC(=O)c3ccc([N+](=O)[O-])s3)sc2Cc2ccccc2)cc1", "MEASURE_UNIT": "µM", "MEASUREMENT": 2.51}
{"LINE_NOTATION": "O=C(Nc1nc(-c2ccc(C(F)(F)F)cc2)c(Oc2ccccc2)s1)c1ccc([N+](=O)[O-])s1", "MEASURE_UNIT": "µM", "MEASUREMENT": 2.47}
{"LINE_NOTATION": "CCC(C)(C)c1ccc(-c2nc(NC(=O)c3ccc([N+](=O)[O-])s3)sc2-c2ccc(F)cc2F)cc1", "MEASURE_UNIT": "µM", "MEASUREMENT": 0.64}
{"LINE_NOTATION": "CCOc1ccc(-c2nnc(NC(=O)Cc3ccc4nc(N)sc4c3)s2)cc1", "MEASURE_UNIT": "µM", "MEASUREMENT": 3.55}
{"LINE_NOTATION": "CC(C)(C)c1ccc(-c2nc(NC(=O)c3ccc([N+](=O)[O-])s3)sc2-c2ccc(F)cc2)cc1", "MEASURE_UNIT": "µM", "MEASUREMENT": 1.37}
{"LINE_NOTATION": "CCC(C)(C)c1ccc(Oc2sc(NC(=O)c3ccc([N+](=O)[O-])s3)nc2-c2ccc(C(F)(F)F)cc2)cc1", "MEASURE_UNIT": "µM", "MEASUREMENT": 0.81}
{"LINE_NOTATION": "Cc1ccc(-c2nc(NC(=O)c3ccc([N+](=O)[O-])s3)sc2-c2cc(C(F)(F)F)cc(C(F)(F)F)c2)cc1", "MEASURE_UNIT": "µM", "MEASUREMENT": 1.2}
{"LINE_NOTATION": "CCCOc1ccc(-c2nc(NC(=O)c3ccc([N+](=O)[O-])s3)sc2Oc2ccc(C#N)cc2)cc1", "MEASURE_UNIT": "µM", "MEASUREMENT": 1.49}
{"LINE_NOTATION": "CCCOc1ccccc1-c1nnc(NC(=O)Cc2ccc3nc(N)sc3c2)s1", "MEASURE_UNIT": "µM", "MEASUREMENT": 0.9}
{"LINE_NOTATION": "COc1ccc(-c2sc(NC(=O)c3ccc([N+](=O)[O-])s3)nc2-c2ccc(C(C)(C)C)cc2)cc1", "MEASURE_UNIT": "µM", "MEASUREMENT": 1.38}
{"LINE_NOTATION": "CC(C)(C)c1ccc(-c2nc(NC(=O)c3ccc([N+](=O)[O-])s3)sc2-c2ccc(Cl)cc2)cc1", "MEASURE_UNIT": "µM", "MEASUREMENT": 0.75}
{"LINE_NOTATION": "CCOc1ccc(-c2nc(NC(=O)c3ccc([N+](=O)[O-])s3)sc2Oc2ccccc2)cc1", "MEASURE_UNIT": "µM", "MEASUREMENT": 2.59}
{"LINE_NOTATION": "CC(C)(C)c1ccc(-c2nc(NC(=O)c3ccc([N+](=O)[O-])s3)sc2Oc2ccc(F)cc2)cc1", "MEASURE_UNIT": "µM", "MEASUREMENT": 0.88}
